ASSAYED_SYSTEM: NDM-1 (Klebsiella pneumoniae, UniProt C7C422)
Sequence (C7C422 whole entry, looked up, species assumed): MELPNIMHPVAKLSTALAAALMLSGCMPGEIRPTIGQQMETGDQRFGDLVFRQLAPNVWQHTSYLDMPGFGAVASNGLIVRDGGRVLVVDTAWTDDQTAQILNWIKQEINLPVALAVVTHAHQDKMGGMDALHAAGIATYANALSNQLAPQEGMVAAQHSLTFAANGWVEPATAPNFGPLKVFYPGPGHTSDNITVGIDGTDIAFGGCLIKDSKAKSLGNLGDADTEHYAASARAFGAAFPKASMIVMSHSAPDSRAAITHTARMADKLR
pIC50: −log10 of the molar value.

[
  {
    "MOLECULE": "NCC1C2CCC1CN(c1ccc(S(=O)(=O)NC[C@H](O)CN)c(S(N)(=O)=O)c1-c1nn[nH]n1)C2 (stereo partly shown)",
    "pIC50": 8.67
  },
  {
    "MOLECULE": "NS(=O)(=O)c1c(S(=O)(=O)C2CNC2)ccc(N2CCC[C@H](O)C2)c1-c1nnn[nH]1",
    "pIC50": 8.37
  },
  {
    "MOLECULE": "CN(C)C1(C)CN(c2ccc(S(=O)(=O)N[C@@H]3CCNC3)c(S(N)(=O)=O)c2-c2nnn[nH]2)C1",
    "pIC50": 7.92
  },
  {
    "MOLECULE": "NCCNS(=O)(=O)c1ccc(N2CCC(O)(CN)CC2)c(-c2nn[nH]n2)c1S(N)(=O)=O",
    "pIC50": 7.77
  },
  {
    "MOLECULE": "NC(=O)[C@@H]1CN(c2ccc(S(=O)(=O)N[C@@H]3CCNC3)c(S(N)(=O)=O)c2-c2nn[nH]n2)CCN1",
    "pIC50": 9.14
  },
  {
    "MOLECULE": "NS(=O)(=O)c1c(S(=O)(=O)N[C@@H]2CCNC2)ccc(N2CCC(CO)CC2)c1-c1nnn[nH]1",
    "pIC50": 10.10
  },
  {
    "MOLECULE": "NC[C@@H](O)CNS(=O)(=O)c1ccc(N2CCC(C3COC(=O)N3)CC2)c(-c2nn[nH]n2)c1S(N)(=O)=O (stereo partly shown)",
    "pIC50": 9.24
  }
]

* * *

System: P. aeruginosa MB9798 (efflux+, IMP-1 plasmid)
SETUP_CONDITIONS: fold difference between efflux+ (MB9798) and efflux− (MB9799) strains
Each entry below carries its recorded Efflux ratio.

[
  {
    "MOLECULE": "NC[C@@H](O)CNS(=O)(=O)c1ccc(N2CCC[C@@H](CN)C2)c(-c2nnn[nH]2)c1S(N)(=O)=O",
    "Efflux ratio": 4.00
  },
  {
    "MOLECULE": "NCCNS(=O)(=O)C1CCN(c2ccc(S(=O)(=O)NC[C@H](O)CN)c(S(N)(=O)=O)c2-c2nn[nH]n2)CC1 [Example 190]",
    "Efflux ratio": 1.00
  },
  {
    "MOLECULE": "NC[C@@H](O)CNS(=O)(=O)c1ccc(N2CCC3(CC2)CC3N)c(-c2nn[nH]n2)c1S(N)(=O)=O (stereo partly drawn)",
    "Efflux ratio": 2.00
  },
  {
    "MOLECULE": "NCCNS(=O)(=O)c1ccc(N2CCC(CO)CC2)c(-c2nnn[nH]2)c1S(N)(=O)=O",
    "Efflux ratio": 1.00
  },
  {
    "MOLECULE": "NCC1CCN(c2ccc(S(=O)(=O)NC[C@@H](N)CN)c(S(N)(=O)=O)c2-c2nn[nH]n2)CC1",
    "Efflux ratio": 1.00
  },
  {
    "MOLECULE": "NCC1C2CCC1CN(c1ccc(S(=O)(=O)NC[C@H](O)CN)c(S(N)(=O)=O)c1-c1nn[nH]n1)C2 (stereo partly drawn)",
    "Efflux ratio": 1.00
  },
  {
    "MOLECULE": "NC[C@@H](O)CNS(=O)(=O)c1ccc(N[C@H]2CCC[C@H]2N)c(-c2nn[nH]n2)c1S(N)(=O)=O",
    "Efflux ratio": 4.00
  },
  {
    "MOLECULE": "NOC1CCCN(c2ccc(S(=O)(=O)N[C@@H]3CCNC3)c(S(N)(=O)=O)c2-c2nn[nH]n2)C1=O (stereo partly drawn)",
    "Efflux ratio": 4.00
  },
  {
    "MOLECULE": "NC[C@@H](O)CNS(=O)(=O)c1ccc(N[C@H]2C[C@H](N)C2)c(-c2nnn[nH]2)c1S(N)(=O)=O",
    "Efflux ratio": 2.00
  },
  {
    "MOLECULE": "NCCS(=O)(=O)c1ccc(N2CCOCC2)c(-c2nnn[nH]2)c1S(N)(=O)=O",
    "Efflux ratio": 8.00
  },
  {
    "MOLECULE": "NCCNS(=O)(=O)C1CCN(c2ccc(S(=O)(=O)N[C@@H](CN)CO)c(S(N)(=O)=O)c2-c2nn[nH]n2)CC1",
    "Efflux ratio": 1.00
  },
  {
    "MOLECULE": "NC[C@@H](O)CNS(=O)(=O)c1ccc(N2CC[C@@H](N)[C@@H](F)C2)c(-c2nn[nH]n2)c1S(N)(=O)=O [Example 207]",
    "Efflux ratio": 1.00
  },
  {
    "MOLECULE": "NCCC1CCN(c2ccc(S(=O)(=O)N[C@@H]3CCNC3)c(S(N)(=O)=O)c2-c2nn[nH]n2)CC1",
    "Efflux ratio": 1.00
  },
  {
    "MOLECULE": "NC[C@@H](O)CNS(=O)(=O)c1ccc(N2CC[C@@H](CN)[C@@H](F)C2)c(-c2nn[nH]n2)c1S(N)(=O)=O (racemic)",
    "Efflux ratio": 2.00
  },
  {
    "MOLECULE": "NC[C@@H](O)CNS(=O)(=O)c1ccc(N2CC[C@@H](N)[C@H](F)C2)c(-c2nn[nH]n2)c1S(N)(=O)=O",
    "Efflux ratio": 1.00
  },
  {
    "MOLECULE": "NCC1CCN(c2ccc(S(=O)(=O)N[C@H](CN)CO)c(S(N)(=O)=O)c2-c2nn[nH]n2)CC1",
    "Efflux ratio": 2.00
  },
  {
    "MOLECULE": "NS(=O)(=O)c1c(S(=O)(=O)N[C@@H]2CCNC2)ccc(N2CCOC(CO)C2)c1-c1nnn[nH]1 (stereo partly drawn)",
    "Efflux ratio": 2.00
  },
  {
    "MOLECULE": "NC[C@@H](O)CNS(=O)(=O)c1ccc(N2CCC(C(N)CO)CC2)c(-c2nn[nH]n2)c1S(N)(=O)=O (single isomer, unassigned) [Example 180]",
    "Efflux ratio": 1.00
  },
  {
    "MOLECULE": "NC(=O)[C@H]1CN(c2ccc(S(=O)(=O)N[C@@H]3CCNC3)c(S(N)(=O)=O)c2-c2nn[nH]n2)CCN1",
    "Efflux ratio": 2.00
  },
  {
    "MOLECULE": "NCCNS(=O)(=O)C1CCN(c2ccc(S(=O)(=O)N[C@@H]3CCNC3)c(S(N)(=O)=O)c2-c2nn[nH]n2)CC1",
    "Efflux ratio": 1.00
  },
  {
    "MOLECULE": "C[C@H](CN)NS(=O)(=O)c1ccc(N2CCC(CN)CC2)c(-c2nnn[nH]2)c1S(N)(=O)=O",
    "Efflux ratio": 1.40
  },
  {
    "MOLECULE": "NC1CCN(c2ccc(S(=O)(=O)N[C@@H]3CCNC3)c(S(N)(=O)=O)c2-c2nnn[nH]2)CC1",
    "Efflux ratio": 2.00
  },
  {
    "MOLECULE": "NS(=O)(=O)c1c(S(=O)(=O)N[C@@H]2CCNC2)ccc(N2CCC3(CC2)CNC3)c1-c1nnn[nH]1",
    "Efflux ratio": 1.00
  },
  {
    "MOLECULE": "NCC=C1CCCN(c2ccc(S(=O)(=O)NC[C@H](O)CN)c(S(N)(=O)=O)c2-c2nn[nH]n2)C1 (single isomer, unassigned; isomer a)",
    "Efflux ratio": 8.00
  },
  {
    "MOLECULE": "NCCC(=O)N1CCN(c2ccc(S(=O)(=O)NC[C@H](O)CN)c(S(N)(=O)=O)c2-c2nn[nH]n2)CC1",
    "Efflux ratio": 1.00
  },
  {
    "MOLECULE": "NS(=O)(=O)c1c(S(=O)(=O)N[C@@H]2CCNC2)ccc(N2CCC(CCO)C2)c1-c1nnn[nH]1 (stereo partly drawn)",
    "Efflux ratio": 2.00
  },
  {
    "MOLECULE": "NC(=O)C1CCN(c2ccc(S(=O)(=O)N[C@@H]3CCNC3)c(S(N)(=O)=O)c2-c2nn[nH]n2)CCN1 (stereo partly drawn)",
    "Efflux ratio": 2.00
  }
]

* * *

pIC50: −log10 of the molar value.
Please consider the recorded pIC50 for NDM-1 (Klebsiella pneumoniae) in what follows.

[
  {
    "COMPOUND": "NS(=O)(=O)c1c(S(=O)(=O)N[C@@H]2CCNC2)ccc(N2CCC(Cc3ccccn3)CC2)c1-c1nnn[nH]1 [Example 106]",
    "pIC50": 10.22
  },
  {
    "COMPOUND": "NCC1CCN(c2ccc(S(=O)(=O)NC[C@H](O)CN)c(S(N)(=O)=O)c2-c2nnn[nH]2)CC1 [Example 34]",
    "pIC50": 8.69
  },
  {
    "COMPOUND": "NS(=O)(=O)c1c(S(=O)(=O)N[C@@H]2CCNC2)ccc(N2CCC(c3c[nH]cn3)CC2)c1-c1nn[nH]n1 [Example 166]",
    "pIC50": 9.92
  },
  {
    "COMPOUND": "NS(=O)(=O)c1c(S(=O)(=O)N[C@@H]2CCNC2)ccc(N2CC[C@@H](CO)C2)c1-c1nnn[nH]1 [Example 70]",
    "pIC50": 9.35
  },
  {
    "COMPOUND": "NC[C@@H](O)CNS(=O)(=O)c1ccc(N2CCC(CC(N)=O)CC2)c(-c2nn[nH]n2)c1S(N)(=O)=O [Example 25]",
    "pIC50": 9.27
  },
  {
    "COMPOUND": "NCCNS(=O)(=O)C1CCN(c2ccc(S(=O)(=O)NC[C@H](O)CN)c(S(N)(=O)=O)c2-c2nn[nH]n2)CC1 [Example 190]",
    "pIC50": 9.17
  },
  {
    "COMPOUND": "NC[C@@H](O)CNS(=O)(=O)c1ccc(N2CC[C@H](CN)[C@@H](O)C2)c(-c2nn[nH]n2)c1S(N)(=O)=O [Example 10]",
    "pIC50": 7.79
  }
]

The values you see were collected from patent US11207312B2.
